Origin of measurements: ChEMBL document CHEMBL5380833

- protocol: AUC (0 to infinity) in Balb/c mouse at 10 mg/kg, ip measured upto 24 hrs by LC-MS/MS analysis
- Type: ADME, organism-based
- Parameters: dose 10 mg/kg, time < 24 hrs, route ip
- assay.conditions: in vivo
property.name: AUC(0-inf) (ng·h/mL)

I: CC1(C)CCc2c(C(=O)Nc3cnn([C@@H](CCN4CCN(CCC5CCN(c6ccc7c(c6)C(=O)N(C6CCC(=O)NC6=O)C7=O)CC5)CC4)c4ccccc4)c3)n[nH]c2C1.O=C(O)C(F)(F)F (some centres not stated)
II: CN(CCCCCC(=O)Nc1ccc2c(c1)C(=O)N(C1CCC(=O)NC1=O)C2=O)CC[C@@H](c1ccccc1)n1cc(NC(=O)c2n[nH]c3c2CCC(C)(C)C3)cn1.O=C(O)C(F)(F)F (some centres not stated)
INPUT: Which numeric AUC(0-inf) is bigger, that of I or that of II ? To answer, give the label that identifies your chosen option.
OUTPUT: I
